test system: HIF-1α-mediated HRE transcriptional activity; assay: Assay for inhibition of HIF-1α-mediated transcriptional activity (HRE reporter assay); type: cell-based, human; settings: Homo sapiens, HCT-116, HCT116 cells, 12 hours under hypoxia (1% O2), read-out: Inhibitory activity against HIF-1α (10 μM)
Endpoint Label: inhibition at 10 µM

Example cases with answers are listed next.
Incoming: Specify the recorded inhibition at 10 µM for CN1CCN(C(=O)COc2ccc(C34CC5CC(CC(C5)C3)C4)cc2)CC1 [Compound I-3] , system: HIF-1α-mediated HRE transcriptional activity.
Outgoing: 76 to 100%

Incoming: Specify the recorded inhibition at 10 µM for C[N+]1(C)CCN(C(=O)CCOc2ccc(C34CC5CC(CC(C5)C3)C4)cc2)CC1 [Compound I-18] , system: HIF-1α-mediated HRE transcriptional activity.
Outgoing: 26 to 50%

Incoming: Specify the recorded inhibition at 10 µM for O=C(COc1ccc(C23CC4CC(CC(C4)C2)C3)cc1)Nc1ccc(N2CCS(=O)(=O)CC2)cc1 [Compound I-38] , system: HIF-1α-mediated HRE transcriptional activity.
Outgoing: 51 to 75%

Record inhibition at 10 µM per entry; entries follow.
1. CN(C)CCNC(=O)C(C)(C)Oc1ccc(C23CC4CC(CC(C4)C2)C3)cc1 [Compound I-24]
2. CN1CCN(C(=O)COc2ccc(C34CC5CC(CC(C5)C3)C4)cc2Cl)CC1 [Compound I-42]
3. O=C(COc1ccc(C23CC4CC(CC(C4)C2)C3)cc1)N1CCn2c(nnc2C(F)(F)F)C1 [Compound I-39]
4. O=C(CCOc1ccc(C23CC4CC(CC(C4)C2)C3)cc1)N1CCOCC1 [Compound I-9]
5. Cc1cc(C23CC4CC(CC(C4)C2)C3)ccc1OCC(=O)NCCN(C)C [Compound I-7]
6. C[C@@H]1CN(C(=O)OC(C)(C)C)CCN1C(=O)COc1ccc(C23CC4CC(CC(C4)C2)C3)cc1 [Compound I-33]
7. C[C@@H]1CNCCN1C(=O)COc1ccc(C23CC4CC(CC(C4)C2)C3)cc1 [Compound I-34]

Outgoing:
1: 76 to 100%; 2: 51 to 75%; 3: 26 to 50%; 4: 76 to 100%; 5: 51 to 75%; 6: 76 to 100%; 7: 51 to 75%

###

assay: Body weight change and side effects during 14 days of oral treatment in nude mice; format: in vivo, BALB/c nu/nu mice; conditions: day 7, 20 mg/kg oral once a day
I'd appreciate it if you could supply Body weight change values for the items below.
One number for each entry, in %.

Record Body weight change per entry; entries follow.
1. C[N+](C)(C)CCNC(=O)CCOc1ccc(C23CC4CC(CC(C4)C2)C3)cc1.[I-]
2. Cc1cc(C23CC4CC(CC(C4)C2)C3)ccc1OCC(=O)N1CCOCC1
3. Cc1cc(C23CC4CC(CC(C4)C2)C3)ccc1OCC(=O)N1CC[N+](C)(C)CC1.[I-]
4. CN1CCN(C(=O)CCOc2ccc(C34CC5CC(CC(C5)C3)C4)cc2)CC1

Outgoing:
1: 104.6; 2: 103.8; 3: 104.3; 4: 102.6
